From: patent US20170210813A1

Overview of reported IC50, blocking PDGF-BB (250 pM) activation, SRE-luciferase across a group of binders:
Measured target: full length human PDGFR-beta on HEK293 cells (human, UniProt P09619 33-1106)
Sequence (P09619 33-1106 limits assumed): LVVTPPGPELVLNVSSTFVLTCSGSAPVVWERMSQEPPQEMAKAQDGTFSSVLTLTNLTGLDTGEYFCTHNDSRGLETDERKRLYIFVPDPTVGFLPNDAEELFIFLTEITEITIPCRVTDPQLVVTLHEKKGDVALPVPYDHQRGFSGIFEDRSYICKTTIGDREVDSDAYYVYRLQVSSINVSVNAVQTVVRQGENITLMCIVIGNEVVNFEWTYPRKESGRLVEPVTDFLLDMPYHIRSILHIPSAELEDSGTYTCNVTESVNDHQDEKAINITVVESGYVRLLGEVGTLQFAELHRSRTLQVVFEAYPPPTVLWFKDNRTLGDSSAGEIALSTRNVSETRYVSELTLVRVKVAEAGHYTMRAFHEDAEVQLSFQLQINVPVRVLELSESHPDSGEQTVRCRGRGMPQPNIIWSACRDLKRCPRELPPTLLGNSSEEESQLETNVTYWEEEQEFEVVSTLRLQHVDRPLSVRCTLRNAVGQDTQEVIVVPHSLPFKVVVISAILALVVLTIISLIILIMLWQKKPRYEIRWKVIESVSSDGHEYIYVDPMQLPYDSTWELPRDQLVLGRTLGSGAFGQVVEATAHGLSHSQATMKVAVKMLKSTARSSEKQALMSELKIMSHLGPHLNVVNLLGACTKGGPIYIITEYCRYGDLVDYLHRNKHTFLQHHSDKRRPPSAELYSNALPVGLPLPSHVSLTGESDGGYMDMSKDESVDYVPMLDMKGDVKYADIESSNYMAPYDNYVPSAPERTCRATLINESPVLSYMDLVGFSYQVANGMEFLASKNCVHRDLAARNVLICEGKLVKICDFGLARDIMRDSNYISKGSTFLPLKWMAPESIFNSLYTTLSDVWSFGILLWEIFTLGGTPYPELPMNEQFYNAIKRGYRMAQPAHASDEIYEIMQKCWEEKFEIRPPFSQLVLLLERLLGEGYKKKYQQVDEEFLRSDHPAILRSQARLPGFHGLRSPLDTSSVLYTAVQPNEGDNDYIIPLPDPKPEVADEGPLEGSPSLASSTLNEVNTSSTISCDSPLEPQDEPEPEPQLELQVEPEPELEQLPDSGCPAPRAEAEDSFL
Assay method text: cell-based or functional assay
Output spec: scalar in M, unitless text.

INSERT INTO measurements (binder, u, experimental_result) VALUES
  ('H4H3098S (antibody, human IgG4, V domains shown, human IgG4 Fc (H4H prefix)) VH: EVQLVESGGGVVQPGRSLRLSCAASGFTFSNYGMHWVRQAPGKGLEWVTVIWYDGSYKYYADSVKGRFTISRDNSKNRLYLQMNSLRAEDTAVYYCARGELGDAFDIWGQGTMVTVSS VL: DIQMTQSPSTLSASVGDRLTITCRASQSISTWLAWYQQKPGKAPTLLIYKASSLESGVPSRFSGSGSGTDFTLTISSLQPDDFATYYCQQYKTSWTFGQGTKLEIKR', 'M', '1.2e-09');

**Q:** Report IC50, blocking PDGF-BB (250 pM) activation, SRE-luciferase for H4H3105S (antibody, human IgG4, V domains shown, human IgG4 Fc (H4H prefix)) VH: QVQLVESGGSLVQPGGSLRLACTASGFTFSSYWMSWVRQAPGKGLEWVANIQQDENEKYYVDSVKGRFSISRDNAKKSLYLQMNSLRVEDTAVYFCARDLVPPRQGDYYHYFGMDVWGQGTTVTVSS VL: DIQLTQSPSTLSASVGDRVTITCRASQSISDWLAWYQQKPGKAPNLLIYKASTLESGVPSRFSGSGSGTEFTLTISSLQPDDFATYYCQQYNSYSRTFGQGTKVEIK please.
**A:** 5.8e-10

**Q:** Look up IC50, blocking PDGF-BB (250 pM) activation, SRE-luciferase: H1M3374N (antibody, V domains shown, mouse Fc format; also called H2M3374N) VH: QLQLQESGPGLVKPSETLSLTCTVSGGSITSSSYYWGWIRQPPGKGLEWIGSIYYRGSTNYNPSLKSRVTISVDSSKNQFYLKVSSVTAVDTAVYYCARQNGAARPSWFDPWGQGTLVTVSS VL: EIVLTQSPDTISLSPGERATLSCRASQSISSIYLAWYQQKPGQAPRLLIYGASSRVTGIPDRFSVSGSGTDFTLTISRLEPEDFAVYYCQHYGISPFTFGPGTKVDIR
**A:** 3.1e-10
